Reference source: ChEMBL document CHEMBL4261600

measurement_protocol: Antiproliferative activity against human MEC1 cells after 72 hrs by Celltiter-Glo assay
Assay type: functional
condition: MEC1, 72 h

{"compound": "COCCN[C@H]1CC[C@H](Oc2cc(-c3csc(NCC4CCOCC4)n3)c(Cl)cn2)CC1", "censor_symbol": ">", "GI50 (nM)": 10000}
{"compound": "O=C(N[C@H]1CC[C@H](Nc2cc(-c3csc(NCC4CCOCC4)n3)c(Cl)cn2)CC1)C1CC1", "censor_symbol": ">", "GI50 (nM)": 10000}
{"compound": "COC[C@H](C)N[C@H]1CC[C@H](Nc2cc(-c3csc(NCC4CCOCC4)n3)c(Cl)cn2)CC1", "censor_symbol": "=", "GI50 (nM)": 1300}
{"compound": "COC[C@@H](C)N[C@H]1CC[C@H](Nc2cc(-c3csc(NCC4(C#N)CCOCC4)n3)c(Cl)cn2)CC1", "censor_symbol": "=", "GI50 (nM)": 47}
{"compound": "CC(=O)N[C@H]1CC[C@H](Nc2cc(-c3csc(NCC4CCOCC4)n3)c(Cl)cn2)CC1", "censor_symbol": ">", "GI50 (nM)": 10000}
{"compound": "Clc1cnc(Nc2ccccc2)cc1-c1csc(NCC2CCOCC2)n1", "censor_symbol": ">", "GI50 (nM)": 10000}
{"compound": "COC[C@@H](C)N[C@H]1CC[C@H](Nc2cc(-c3csc(NCC4CCOCC4)n3)c(Cl)cn2)CC1", "censor_symbol": "=", "GI50 (nM)": 310}
{"compound": "COCCN[C@H]1CC[C@H](Nc2cc(-c3csc(NCC4CCCC4)n3)c(Cl)cn2)CC1", "censor_symbol": "=", "GI50 (nM)": 2940}
{"compound": "COCCN[C@H]1CC[C@H](Nc2cc(-c3csc(NCC4CCC4)n3)c(Cl)cn2)CC1", "censor_symbol": "=", "GI50 (nM)": 2260}
{"compound": "COCCN[C@H]1CC[C@H](Nc2cc(-c3csc(NCc4ccccc4)n3)c(Cl)cn2)CC1", "censor_symbol": "=", "GI50 (nM)": 470}
{"compound": "CCOCCN[C@H]1CC[C@H](Nc2cc(-c3csc(NCC4CCOCC4)n3)c(Cl)cn2)CC1", "censor_symbol": "=", "GI50 (nM)": 634}
{"compound": "COCCN[C@H]1CC[C@H](Nc2cc(-c3csc(NCC4CCOCC4)n3)c(Cl)cn2)CC1", "censor_symbol": "=", "GI50 (nM)": 1240}
{"compound": "COCCN[C@H]1CC[C@H](Nc2cc(-c3csc(NCC4CCOC4)n3)c(Cl)cn2)CC1 (some centres undefined)", "censor_symbol": "=", "GI50 (nM)": 883}
{"compound": "CC(C)(C)OC(=O)Nc1nc(-c2cc(F)ncc2Cl)cs1", "censor_symbol": ">", "GI50 (nM)": 10000}
{"compound": "COCCN[C@H]1CC[C@H](Nc2cc(-c3csc(NCC4CCOCC4)n3)ccn2)CC1", "censor_symbol": "=", "GI50 (nM)": 2500}
{"compound": "CNc1nc(-c2cc(N[C@H]3CC[C@H](NCCOC)CC3)ncc2Cl)cs1", "censor_symbol": "=", "GI50 (nM)": 1400}
{"compound": "O=C(Nc1cc(-c2csc(NCC3CCOCC3)n2)c(Cl)cn1)c1ccc(F)cc1", "censor_symbol": "=", "GI50 (nM)": 3600}
{"compound": "COCCN[C@H]1CC[C@H](Nc2cc(-c3csc(NCc4ccc(F)cc4)n3)c(Cl)cn2)CC1", "censor_symbol": "=", "GI50 (nM)": 450}
{"compound": "COCCN[C@H]1CC[C@H](Nc2cc(-c3csc(NCC4C5CC6CC(C5)CC4C6)n3)c(Cl)cn2)CC1 (some centres undefined)", "censor_symbol": "=", "GI50 (nM)": 6310}
